# System: 699152-130-R-J1-PDC complex spheroid viability
# test-description: Anticancer human tumor 699152-130-R-J1-PDC patient-derived pancreatic carcinoma cell line growth inhibition [POLQ]
# condition-set: second compound 10 µM; first compound 1 µM; stronger effect = lower value
value-kind: viability, T/C

compound	value-kind	result
COc1cccc2c1C(=O)c1c(O)c3c(c(O)c1C2=O)CC(O)(C(=O)CO)CC3OC1CC(N)C(O)C(C)O1 (stereo not given) + Cc1cccc(N(C)C(=O)C2C(O)CCN2c2nc(C)cc(C(F)(F)F)c2C#N)c1	viability, T/C	12%

// query I have this compound here, O=C(c1cc(Cc2n[nH]c(=O)c3ccccc23)ccc1F)N1CCN(C(=O)C2CC2)CC1 + COC1C(OC(N)=O)C(O)C(Oc2ccc3c(O)c(NC(=O)c4ccc(O)c(CC=C(C)C)c4)c(=O)oc3c2C)OC1(C)C , and I need its recorded viability, T/C.
// result 40.2%

// query Another compound: CCc1cc2c(N3CCc4c(cc(Cn5ccnc5)cc4-c4cn(C)nc4C(F)(F)F)C3=O)ccnc2c(OC)n1 + Cc1cccc(N(C)C(=O)C2C(O)CCN2c2nc(C)cc(C(F)(F)F)c2C#N)c1
// result 94.7%

// query Another compound: O=C(Nc1ccc(O)c(NS(=O)(=O)c2ccc(F)cc2)c1)c1ccc(-c2ccccc2)cc1 + Nc1ccc(C#CCN(C(=O)Cc2ncc(C(F)(F)F)cc2C(F)(F)F)c2ccc(F)cc2)nn1
// result 103%

// query Another compound: CNCc1ccc(-c2[nH]c3cc(F)cc4c3c2CCNC4=O)cc1 + Cc1cccc(N(C)C(=O)C2C(O)CCN2c2nc(C)cc(C(F)(F)F)c2C#N)c1
// result 97.9%

* * *

Reported values of viability, T/C for individual entries
# System: 699152-130-R-J1-PDC complex spheroid viability
# test-description: Anticancer human tumor 699152-130-R-J1-PDC cell line growth inhibition [POLQ];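 also: spheroids exposed to agents for 7 days before viability reading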;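 as to viability, T/C: percent of DMSO vehicle control viability so 100% = vehicle and 0% = no viable signal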
# condition-set: second compound 0.0316 µM; first compound 0.000316 µM; stronger effect = lower value
Provide only the numeric value, understood in %.

Solved cases below.
compound	viability, T/C, %
Cn1ncnc1[C@H]1c2n[nH]c(=O)c3cc(F)cc(c23)N[C@@H]1c1ccc(F)cc1 + COC1C(OC(N)=O)C(O)C(Oc2ccc3c(O)c(NC(=O)c4ccc(O)c(CC=C(C)C)c4)c(=O)oc3c2C)OC1(C)C	114
CC[C@@]1(O)C(=O)OCc2c1cc1n(c2=O)Cc2cc3c(CN(C)C)c(O)ccc3nc2-1 + Cc1cccc(N(C)C(=O)C2C(O)CCN2c2nc(C)cc(C(F)(F)F)c2C#N)c1	104

Let us examine a further case.
// query I have this compound here, Cn1ncnc1[C@H]1c2n[nH]c(=O)c3cc(F)cc(c23)N[C@@H]1c1ccc(F)cc1 + Nc1ccc(C#CCN(C(=O)Cc2ncc(C(F)(F)F)cc2C(F)(F)F)c2ccc(F)cc2)nn1 , and I need its recorded viability, T/C.
// result 102

* * *

# Test system: 699152-130-R-J1-PDC complex spheroid viability
# test-description: Anticancer human tumor 699152-130-R-J1-PDC cell line growth inhibition [POLQ];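 also: spheroids exposed to agents for 7 days before viability reading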
# condition-set: curve of first compound; second compound 1 µM
value-kind: log10(IC50) (log10 of the value in µM)
log10 IC50, µM

Solved cases below.
compound	value-kind	numeric-readout
CCCS(=O)(=O)Nc1ccc(F)c(C(=O)c2c[nH]c3ncc(-c4ccc(Cl)cc4)cc23)c1F + Cc1cccc(N(C)C(=O)C2C(O)CCN2c2nc(C)cc(C(F)(F)F)c2C#N)c1	log10(IC50)	0.93
COc1cccc2c1C(=O)c1c(O)c3c(c(O)c1C2=O)CC(O)(C(=O)CO)CC3OC1CC(N)C(O)C(C)O1 (stereo not given) + Cc1cccc(N(C)C(=O)C2C(O)CCN2c2nc(C)cc(C(F)(F)F)c2C#N)c1	log10(IC50)	-0.56
COc1cccc2c1C(=O)c1c(O)c3c(c(O)c1C2=O)CC(O)(C(=O)CO)CC3OC1CC(N)C(O)C(C)O1 (stereo not given) + Nc1ccc(C#CCN(C(=O)Cc2ncc(C(F)(F)F)cc2C(F)(F)F)c2ccc(F)cc2)nn1	log10(IC50)	-0.69
COc1cc(C2c3cc4c(cc3C(OC3OC5COC(C)OC5C(O)C3O)C3COC(=O)C23)OCO4)cc(OC)c1O (stereo not given) + COC1C(OC(N)=O)C(O)C(Oc2ccc3c(O)c(NC(=O)c4ccc(O)c(CC=C(C)C)c4)c(=O)oc3c2C)OC1(C)C	log10(IC50)	0.40

// query I have this compound here, COc1cc(C2c3cc4c(cc3C(OC3OC5COC(C)OC5C(O)C3O)C3COC(=O)C23)OCO4)cc(OC)c1O (stereo not given) + Nc1ccc(C#CCN(C(=O)Cc2ncc(C(F)(F)F)cc2C(F)(F)F)c2ccc(F)cc2)nn1 , and I need its recorded log10(IC50).
// result 0.63

The reported numbers originate from PubChem BioAssay AID1963835.
